Cited source for all entries: the supplement of paper PMC10567573

B1: ISL2 (parent)
chain: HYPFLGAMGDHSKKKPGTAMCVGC

Variants of: B1
protocol_summary: protein stability index of a GFP-peptide fusion (GPS, HEK-293T) (PSI 1-6); higher = more stable;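 also: lentivirally expressed fusions sorted by FACS into six bins by GFP to DsRed ratio, PSI derived from sequencing read proportions per bin multiplied by bin number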
test_context: c terminus: a fixed tail appended
Threshold rule: protein stability index greater than or equal to 3 is Y; below that, N.

Below are worked cases with known answers.
>>> print(df.to_string())
   mutation_list  category_label
0            G6R               N
1           C24N               Y
2            L5S               Y
3           A19V               N
4            Y2E               Y
5            F4G               Y

Query: Confirm if protein stability index reported for the variant G9S is 3 or above.
Response: N

Query: Evaluate H1N : protein stability index at minimum 3?
Response: Y

Query: Check this variant for protein stability index at or above 3: G23Q
Response: N

Query: Please tell me: is the variant L5C at or over 3 in terms of protein stability index?
Response: Y

Query: protein stability index >= 3 for A7V ?
Response: N

Query: Determine whether this variant has protein stability index no lower than 3: K14I
Response: N
